tested on: CAKI-1 renal; assay: NCI tumour cell line growth inhibition, 48 h; in the data active means GI50 below about 0.43 µM; inactive means the rest
Pick one: 1 (yes) (active), 0 (no) (inactive)

>>> print(df.to_string())
                                   molecule  target_or_test_system  category_label
0         O=C(O)c1cccc2cccc(C(=O)O)c12.[Hg]           CAKI-1 renal          0 (no)
1  COc1ccc(-c2nc(N3CCOCC3)c3sc(CN(C)c4ncc(C(=O)NO)cn4)cc3n2)cn1           CAKI-1 renal         1 (yes)
2  Cc1ccc(-c2nc(N)c(C#N)c3c2CCOc2c-3ccc3ccccc23)cc1           CAKI-1 renal         1 (yes)
3  CCN(CC)CCCCNc1ncc2cc(-c3cc(OC)cc(OC)c3)c(NC(=O)NC(C)(C)C)nc2n1           CAKI-1 renal          0 (no)
4  O=C(CN1C(=O)S/C(=C\C(Cl)=C\c2ccccc2)C1=O)NCCc1ccc(O)cc1           CAKI-1 renal          0 (no)
5  Cn1ccnc1C(=O)/C=C/c1ccc(CC(=O)Nc2ccc(F)cc2)cc1           CAKI-1 renal          0 (no)
6  O=C(NC1CCCCC1)NS(=O)(=O)c1ccc(-n2nc3c(c2-c2ccc(Cl)cc2)Cc2ccccc2-3)cc1           CAKI-1 renal          0 (no)
7  O=S(=O)(CCNCc1ccc(-c2ccc3ncnc(Nc4ccc(OCc5cccc(F)c5)c(Cl)c4)c3c2)o1)c1ccccc1           CAKI-1 renal          0 (no)

Recorded test call requested for Cc1sc(NC2=NC(=O)/C(=C\c3ccccc3)S2)nc1-c1nc(NC2=NC(=O)/C(=C\c3ccccc3)S2)sc1C
0 (no)

Recorded test call requested for COc1cc(-n2cnc(-c3ccc(Cl)cc3)c2)cc(OC)c1OC
0 (no)

Recorded test call requested for CSC1=Nc2c(c(C)c(C)n2COC(CO)CO)C2=NC(=O)CC(C)N12 (stereo unspecified)
0 (no)

Recorded test call requested for COc1cc(/C=C2\C(=O)N(c3ccccc3)c3ccccc32)cc(OC)c1OC
0 (no)

Recorded test call requested for O=C(O)c1c[nH]c2c(OCc3ccccc3)c3ccccc3c(O)c2c1=O
0 (no)
